Below: a set of entries, each annotated with reported pIC50.
# Assay Target: ENaC (Mus musculus, UniProt Q61180+Q9WU38+Q9WU39)
# Construct: Mouse kidney M-1 cells were cultivated in DMEM containing 5% FCS and 5 μM dexamethasone; endogenous in cells
# Sequence (Q61180 1-699): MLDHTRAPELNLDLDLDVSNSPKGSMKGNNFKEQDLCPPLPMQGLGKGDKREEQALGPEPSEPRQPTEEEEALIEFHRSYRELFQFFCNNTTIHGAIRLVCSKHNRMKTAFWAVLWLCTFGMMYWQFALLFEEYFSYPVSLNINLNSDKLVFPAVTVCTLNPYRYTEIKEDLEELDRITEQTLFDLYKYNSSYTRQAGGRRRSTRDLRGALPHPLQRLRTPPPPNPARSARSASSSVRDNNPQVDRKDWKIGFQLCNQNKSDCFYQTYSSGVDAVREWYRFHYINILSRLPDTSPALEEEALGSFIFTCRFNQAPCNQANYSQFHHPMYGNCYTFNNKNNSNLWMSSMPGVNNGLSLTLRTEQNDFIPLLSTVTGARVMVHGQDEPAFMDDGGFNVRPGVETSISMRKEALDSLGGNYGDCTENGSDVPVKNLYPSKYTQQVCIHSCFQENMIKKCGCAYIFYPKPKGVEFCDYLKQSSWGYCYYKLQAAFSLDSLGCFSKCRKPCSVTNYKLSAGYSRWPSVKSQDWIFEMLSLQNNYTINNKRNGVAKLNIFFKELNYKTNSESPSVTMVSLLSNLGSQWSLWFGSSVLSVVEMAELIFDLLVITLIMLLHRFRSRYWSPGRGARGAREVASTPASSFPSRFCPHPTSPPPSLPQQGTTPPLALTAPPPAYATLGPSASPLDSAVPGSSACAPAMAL
# Sequence (Q9WU38 1-638): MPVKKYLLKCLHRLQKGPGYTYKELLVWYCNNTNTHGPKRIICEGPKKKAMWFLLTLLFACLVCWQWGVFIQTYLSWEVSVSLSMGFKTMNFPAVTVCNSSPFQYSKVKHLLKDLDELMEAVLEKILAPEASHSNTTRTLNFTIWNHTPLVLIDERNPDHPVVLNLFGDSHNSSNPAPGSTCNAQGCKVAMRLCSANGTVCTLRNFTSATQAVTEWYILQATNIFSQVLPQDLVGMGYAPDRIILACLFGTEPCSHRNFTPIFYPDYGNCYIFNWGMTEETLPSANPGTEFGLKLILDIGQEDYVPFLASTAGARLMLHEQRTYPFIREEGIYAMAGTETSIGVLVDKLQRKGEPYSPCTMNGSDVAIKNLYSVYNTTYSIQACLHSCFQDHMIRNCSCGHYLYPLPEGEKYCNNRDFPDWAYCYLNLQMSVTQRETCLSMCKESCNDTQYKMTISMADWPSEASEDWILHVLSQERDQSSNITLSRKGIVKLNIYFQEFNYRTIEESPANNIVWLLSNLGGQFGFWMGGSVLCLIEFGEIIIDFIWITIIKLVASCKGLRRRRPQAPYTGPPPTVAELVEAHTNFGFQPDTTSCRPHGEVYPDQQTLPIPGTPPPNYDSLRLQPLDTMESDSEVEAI
# Sequence (Q9WU39 1-655): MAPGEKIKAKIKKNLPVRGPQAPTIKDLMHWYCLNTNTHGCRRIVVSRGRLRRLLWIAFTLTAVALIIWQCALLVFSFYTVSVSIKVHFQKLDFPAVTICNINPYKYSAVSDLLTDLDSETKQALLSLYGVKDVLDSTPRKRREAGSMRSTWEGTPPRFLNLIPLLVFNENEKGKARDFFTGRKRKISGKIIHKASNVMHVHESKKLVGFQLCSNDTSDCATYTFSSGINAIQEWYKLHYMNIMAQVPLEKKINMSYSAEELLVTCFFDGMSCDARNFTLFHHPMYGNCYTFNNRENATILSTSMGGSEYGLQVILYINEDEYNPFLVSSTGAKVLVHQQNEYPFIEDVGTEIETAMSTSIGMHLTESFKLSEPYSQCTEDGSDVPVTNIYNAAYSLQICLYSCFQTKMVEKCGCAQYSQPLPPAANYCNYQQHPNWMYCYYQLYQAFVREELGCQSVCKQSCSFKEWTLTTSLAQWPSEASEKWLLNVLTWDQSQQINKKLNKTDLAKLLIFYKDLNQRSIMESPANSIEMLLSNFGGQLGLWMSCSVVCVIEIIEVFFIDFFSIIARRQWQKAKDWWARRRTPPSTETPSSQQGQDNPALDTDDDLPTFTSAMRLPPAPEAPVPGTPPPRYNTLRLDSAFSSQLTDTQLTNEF
# Assay Remarks: Ussing chamber: short circuit current (I_sc) in mouse kidney M-1 cells, amiloride-sensitive
# Measurement Setup: compound applied to apical solution, 37° C.
The scale used: pIC50 is minus the common logarithm of the concentration in molar units.

Known pIC50 results, listed for orientation:
INSERT INTO results (compound, assay_target, measured) VALUES
  ('COc1cccc(C[N+]23CCC(CC2)[C@H](NC(N)=NC(=O)c2nc(Cl)c(N)nc2N)C3)c1OC', 'ENaC (Mus musculus, UniProt Q61180+Q9WU38+Q9WU39)', 7.47),
  ('N/C(=N\C(=O)c1nc(Cl)c(N)nc1N)N[C@@H]1C[N+]2(Cc3ccc(F)cc3)CCC1CC2', 'ENaC (Mus musculus, UniProt Q61180+Q9WU38+Q9WU39)', 7.55),
  ('N/C(=N\C(=O)c1nc(Cl)c(N)nc1N)N[C@@H]1C[N+]2(Cc3ccccc3)CCC1CC2', 'ENaC (Mus musculus, UniProt Q61180+Q9WU38+Q9WU39)', 7.55),
  ('C[N+]1(Cc2ccccc2)CC[C@H](NC(N)=NC(=O)c2nc(Cl)c(N)nc2N)C1 (some centres unmarked)', 'ENaC (Mus musculus, UniProt Q61180+Q9WU38+Q9WU39)', 6.95),
  ('N/C(=N\C(=O)c1nc(Cl)c(N)nc1N)N[C@H]1C[N+]2(Cc3ccccc3)CCC1CC2', 'ENaC (Mus musculus, UniProt Q61180+Q9WU38+Q9WU39)', 6.34);

q: Entry NC(=NC(=O)c1nc(Cl)c(N)nc1N)N[C@@H]1C[N+]2(Cc3nnsc3Cl)CCC1CC2 has what pIC50?
a: 6.65

q: Please do the same for COc1cc(C[N+]23CCC(CC2)[C@H](NC(N)=NC(=O)c2nc(Cl)c(N)nc2N)C3)cc(OC)c1 as well.
a: 7.10

q: Please do the same for NC(=NC(=O)c1nc(Cl)c(N)nc1N)NC1C[N+]2(CC(=O)NC3CCC(c4ccccc4)CC3)CCC1CC2 (centres unmarked) as well.
a: 7.66

q: Please do the same for COc1ccc(C[N+]23CCC(CC2)[C@H](N/C(N)=N/C(=O)c2nc(Cl)c(N)nc2N)C3)cc1 as well.
a: 7.70

q: Please do the same for C[N+]1(CC(=O)NCc2ccc(Cl)cc2)CCC[C@@H](N/C(N)=N/C(=O)c2nc(Cl)c(N)nc2N)C1 (mixture of isomers) as well.
a: 7.35

q: Please do the same for N/C(=N\C(=O)c1nc(Br)c(N)nc1N)N[C@@H]1C[N+]2(Cc3ccccc3)CCC1CC2 as well.
a: 7.54

q: Please do the same for N#Cc1cccc(C[N+]23CCC(CC2)[C@H](NC(N)=NC(=O)c2nc(Cl)c(N)nc2N)C3)c1 as well.
a: 7.42

q: Please do the same for C[N+]1(CC(=O)Nc2cccc(F)c2)CCC[C@H](NC(N)=NC(=O)c2nc(Cl)c(N)nc2N)C1 (mixture of isomers) as well.
a: 7.51

q: Please do the same for NC(=NC(=O)c1nc(Cl)c(N)nc1N)N[C@@H]1C[N+]2(Cc3nc4ccccc4s3)CCC1CC2 as well.
a: 7.54

q: Please do the same for NC(=NC(=O)c1nc(Cl)c(N)nc1N)N[C@@H]1C[N+]2(Cc3ccc(SC(F)(F)F)cc3)CCC1CC2 as well.
a: 7.64

q: Please do the same for CN(Cc1ccccc1)C(=O)C[N+]1(C)CCC(NC(N)=NC(=O)c2nc(Cl)c(N)nc2N)CC1 (centres unmarked) as well.
a: 7.12

q: Please do the same for NC(=NC(=O)c1nc(Cl)c(N)nc1N)N[C@@H]1C[N+]2(CC(=O)c3ccccc3)CCC1CC2 as well.
a: 7.20

q: Please do the same for CC(C)NC(=O)C[N+]12CCC(CC1)[C@H](NC(N)=NC(=O)c1nc(Cl)c(N)nc1N)C2 as well.
a: 7.54

q: Please do the same for CCNC(=O)C[N+]12CCC(CC1)[C@H](NC(N)=NC(=O)c1nc(Cl)c(N)nc1N)C2 as well.
a: 7.25

q: Please do the same for NC(=NC(=O)c1nc(Cl)c(N)nc1N)N[C@@H]1C[N+]2(Cc3ccc(CO)cc3)CCC1CC2 as well.
a: 7.28

q: Please do the same for CC(C)(C)OC(=O)c1ccc(C[N+]23CCC(CC2)[C@H](NC(N)=NC(=O)c2nc(Cl)c(N)nc2N)C3)cc1 as well.
a: 6.57

q: Please do the same for NC(=NC(=O)c1nc(Cl)c(N)nc1N)N[C@@H]1C[N+]2(Cc3ccccc3SC(F)(F)F)CCC1CC2 as well.
a: 7.22
